Experiment: qHTS assay to identify small molecule antagonists of the thyroid receptor (TR) signaling pathway (AID 743065); further: nearly all actives have a fitted effect of over 55% in size
Conditions: GH3.TRE-Luc, T3-stimulated luciferase inhibition, 23.5 h; series mostly up to 70.3 µM
Text: U.S. Tox21 Program National Center for Advancing Translational Sciences [NCATS] NIH Chemical Genomics Center [NCGC] U.S. Environmental Protection Agency [EPA] National Institutes of Environmental Health Sciences [NIEHS] National Toxicology Program [NTP] U.S. Food and Drug Administration [FDA] Tox21 Assay Overview: Thyroid receptor (TR), a nuclear hormone receptor, plays an important role in development, proliferation, differentiation, metabolism, brain function, and cardiovascular system. […]
Results filed as inconclusive are left out. Calls of active or inactive are those of the source. The call rests on the fitted dose curve; in most records, active means well fitted inhibition curve with a large enough effect in the repeat runs; inconclusive means weak or mixed curves; inactive means no such curve, though single readings can be large or run the other way.
Output constraint: value belongs to 1 (active), -1 (inactive)

Examples from the recorded data:
Query: Outcome? `CCOC(=O)c1ccccc1C`
Response: -1

Query: Please indicate how the test categorized `CC(=O)Nc1ccc(N)cc1` .
Response: -1

Query: Field: outcome | Entry: Fc1ccccc1[C@@H](F)COC1CCC(Nc2ncnc3[nH]ncc23)CC1 (some centres undefined)
Response: 1

Query: What call does the record list for CC1=CC(=O)CC(C)(C)C1(O)/C=C/C(C)=C\C(=O)O (centres undefined) ?
Response: -1

Next:
Query: Entry `CCCCCCOC(=O)C(C)C` : call = ?
Response: -1

Query: Assay outcome for `O=C(N[C@@H](c1ccccc1)[C@@H]1CCCCN1)c1cccc(C(F)(F)F)c1Cl` : what was it?
Response: 1

====

Assay: qHTS assay to identify small molecule antagonists of the estrogen receptor alpha (ER-alpha) signaling pathway - cell viability counter screen (AID 743074);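 further: HEK293 cells carrying ER-alpha-UAS-bla reporter stimulated with 17beta-estradiol; nearly all actives have a fitted effect of over 45% in size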
Conditions: ERalpha-bla HEK293 viability, CellTiter-Glo luminescence, 18 h; series mostly up to 69.4 µM
Results filed as inconclusive are left out. Activity calls are given as the source filed them. The call rests on the fitted dose curve.
The reply should name one outcome from TRUE = active, FALSE = inactive

Worked examples follow.
Query: Look up the recorded call for `Cc1cc(OI)c(C(C)C)cc1-c1cc(C(C)C)c(OI)cc1C` in this test.
Response: FALSE

Query: What classification did CCC(C(=O)OCCN(CC)CC)c1ccccc1 (stereo not drawn) end up with in this test?
Response: FALSE

Query: Which outcome was assigned to `C/C=C/C=C/CCCCCCCO` in this test?
Response: FALSE

Query: Recorded test call requested for `CN1CCN(CCCN2c3ccccc3Sc3ccc(S(=O)(=O)N(C)C)cc32)CC1`
Response: FALSE

Query: Look up the recorded call for `CCc1nn(CCCN2CCN(c3cccc(Cl)c3)CC2)c(=O)n1CCOc1ccccc1` in this test.
Response: TRUE

Query: Per the records of this test, what outcome belongs to `O=[N+]([O-])c1cccc(S(=O)(=O)NCCNS(=O)(=O)c2cccc([N+](=O)[O-])c2)c1` ?
Response: FALSE

Lab note: next compound to report on.
Query: Fill in: this test's call for N#C/C(=C1\SCC(c2ccccc2Cl)S1)n1ccnc1 (stereo not drawn) is ___
Response: FALSE

====

Biological target: Glucocorticoid receptor (Homo sapiens) (UniProt P04150)
Sequence (P04150 whole entry, looked up): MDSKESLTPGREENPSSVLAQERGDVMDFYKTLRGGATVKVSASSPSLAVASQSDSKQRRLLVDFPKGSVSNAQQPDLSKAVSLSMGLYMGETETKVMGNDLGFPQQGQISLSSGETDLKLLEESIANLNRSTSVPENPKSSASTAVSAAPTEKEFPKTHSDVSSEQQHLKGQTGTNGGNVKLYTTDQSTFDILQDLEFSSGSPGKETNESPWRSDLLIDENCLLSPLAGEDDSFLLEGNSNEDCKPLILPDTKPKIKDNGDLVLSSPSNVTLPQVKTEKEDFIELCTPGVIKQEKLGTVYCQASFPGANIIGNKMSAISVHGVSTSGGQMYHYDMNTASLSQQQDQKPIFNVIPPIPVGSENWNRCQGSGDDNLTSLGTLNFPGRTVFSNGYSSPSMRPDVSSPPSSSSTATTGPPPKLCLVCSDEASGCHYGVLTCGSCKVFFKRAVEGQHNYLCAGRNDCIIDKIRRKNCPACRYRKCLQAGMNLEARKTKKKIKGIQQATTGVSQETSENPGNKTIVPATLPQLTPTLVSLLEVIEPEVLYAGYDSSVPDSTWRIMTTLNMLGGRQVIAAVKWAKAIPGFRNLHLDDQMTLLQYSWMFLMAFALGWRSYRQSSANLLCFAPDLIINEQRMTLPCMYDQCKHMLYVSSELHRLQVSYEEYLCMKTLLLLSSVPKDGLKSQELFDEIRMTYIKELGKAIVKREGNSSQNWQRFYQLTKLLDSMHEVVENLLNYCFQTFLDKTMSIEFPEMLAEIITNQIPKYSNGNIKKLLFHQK
Test: qHTS assay to identify small molecule agonists of the glucocorticoid receptor (GR) signaling pathway (AID 720691); further: on the % scale 0 is the no-effect control and ±100 the full control effect
Conditions: GR-bla HeLa, beta-lactamase reporter ratio, 18 h; series mostly up to 62.4 µM
Excerpt: U.S. Tox21 Program National Center for Advancing Translational Sciences [NCATS] NIH Chemical Genomics Center [NCGC] U.S. Environmental Protection Agency [EPA] National Institutes of Environmental Health Sciences [NIEHS] National Toxicology Program [NTP] U.S. Food and Drug Administration [FDA] […] The activation of the reporter gene under culture conditions can be detected by fluorescence intensity. […]
Inconclusive results are not listed. Active and inactive are the calls of the source. Calls follow the shape of the dose curve; as a rule, active = well fitted activation curve with a large enough effect in the signal ratio in the repeat runs (not every such curve was filed as active); inconclusive = weak or mixed curves, or effect the other way; inactive = no such curve, though single readings can be large or run the other way; the % refers to the signal ratio.
Your reply should match one of these outcome classes. active, inactive

Query: Assay result, entry `CC1=C(C=O)C(C)(C)CCC1` — outcome?
Response: inactive

Query: Any idea what this test logged for `CC(C)CCCCCCOC(=O)CCCCC(=O)OCCCCCCC(C)C` ?
Response: inactive

Query: Can you look up the reported call for `Brc1cc(-c2ccc(Br)c(Br)c2Br)cc(Br)c1Br` for me?
Response: inactive

Query: What did this assay record as the result for CO/N=C1\CN(c2nc3c(cc2F)c(=O)c(C(=O)O)cn3C2CC2)CC1CN (stereo unspecified) ?
Response: inactive

Query: Recorded test call requested for `CC(C)C(=O)O`
Response: inactive

Continuing:
Query: What classification did `Cc1nccn1-c1ccc(Sc2cccc(C3(C(N)=O)CCOCC3)c2)cc1` end up with in this test?
Response: inactive

====

Assay: qHTS assay to test for compound auto fluorescence at 535 nm (green) in HEK293 cell free culture (AID 720682); further: on the % scale 0 is the no-effect control and ±100 the full control effect
Settings: cell-free medium, green autofluorescence 485/535 nm, stronger effect = higher value; series mostly up to 91.3 µM
Calls of active or inactive are those of the source. Calls follow the shape of the dose curve; as a rule, active = well fitted curve in the direction sought with a large enough effect in the repeat runs; inconclusive = weak or mixed curves; inactive = flat fitted curve, though single readings scatter.
value.type: activity change

Query: Would you kindly share the measured activity change for `C=CCCCCCCCCCCCCCCCC` ?
Response: -0.098% [at 3.72 µM] (inactive)

Query: Recorded activity change for `NC(=O)N(O)[C@@H]1C=C[C@H](Oc2cccc(Oc3ccc(F)cc3)c2)C1` , please?
Response: inactive

Query: For `O=C(O)c1ccc(CO)o1` , what is its reported activity change?
Response: inactive

====

Assay: qHTS assay for identifying genotoxic compounds that show differential cytotoxicity against isogenic chicken DT40 cell lines with known DNA damage response pathways - wild type cell line (AID 743012); further: nearly all actives have a fitted effect of over 60% in size
Conditions: DT40 wild type chicken cells viability, CellTiter-Glo, 40 h; series mostly up to 68.4 µM
Results filed as inconclusive are left out. Calls of active or inactive are those of the source. Calls follow the shape of the dose curve; as a rule, active = well fitted cell-killing curve with a large enough effect in the repeat runs; inconclusive = weak or mixed curves, or effect the other way; inactive = no such curve, though single readings can be large or run the other way.
The reply should name one outcome from active, inactive

Query: // outcome(item) with item = `Oc1ccc(Nc2ccccc2)cc1`
Response: active

Next:
Query: How did this test come out for `c1ccc(COCc2ccccc2)cc1` ?
Response: inactive

Query: // param item: `CCn1cc(C(=O)O)c(=O)c2cc(F)c(N3CCNCC3)nc21` ; yields the recorded call
Response: inactive

Query: Identify the outcome logged in this assay for the compound shown: CCC(C)(O)CCC=C(C)C (stereo unspecified)
Response: inactive

Query: Recorded call for `O=C(O)c1snc(Cl)c1Cl` ?
Response: active

Query: Record request — test call for `COC(OC)(C(=O)c1ccccc1)c1ccccc1`
Response: active

====

Biological target: Cytochrome P450 3A4 (Homo sapiens)
Experiment: Cytochrome P450 Family 3 Subfamily A Member 4 (CYP3A4) small molecule antagonists: luciferase reporter qHTS assay (AID 1671201); further: on the % scale 0 is the no-effect control and ±100 the full control effect; nearly all actives have a fitted effect of over 50% in size
Conditions: P450-Glo CYP3A4 enzyme, luciferin luminescence, 1 h; series mostly up to 115 µM
Inconclusive results are not listed. Activity calls are given as the source filed them. Calls follow the shape of the dose curve; as a rule, active = well fitted inhibition curve with a large enough effect in the repeat runs; inconclusive = weak or mixed curves; inactive = no such curve, though single readings can be large or run the other way.
Hello, when you answer, please use one of the following outcomes: active, inactive

Query: # lookup: test call for `CC(C)c1nnc2ccc(-c3ocnc3-c3cc(F)ccc3F)cn12`
Response: inactive

====

Assay: A CellTox Green Cytotoxicity Assay to monitor cytotoxicity in HEK293 cells - 40 hour (AID 1224871); further: nearly all actives have a fitted effect of over 45% in size; further: potency means the concentration at half of the fitted maximal effect
Conditions: CellTox Green fluorescence; series mostly up to 76.8 µM
Description: National Center for Advancing Translational Sciences [NCATS] NIH Chemical Genomics Center [NCGC] U.S. Environmental Protection Agency [EPA] National Institutes of Environmental Health Sciences [NIEHS] National Toxicology Program [NTP] Cell-based models are critical for drug discovery. […] Viable cells produce no appreciable increases in fluorescence. Therefore, the fluorescence signal produced by the binding interaction with dead cell DNA is proportional to cytotoxicity. […]
Results filed as inconclusive are left out. Active and inactive are the calls of the source. Calls come from the whole dose curve; as a rule, active = well fitted activation curve with a large enough effect in the repeat runs; inconclusive = weak or mixed curves; inactive = flat fitted curve, though single readings scatter.
value.type: Potency

Solved cases (5 shown):
Query: Tell me the measured Potency of `O=C(Nc1ccccc1)Nc1ccccc1` , please.
Response: inactive

Query: Entry `CCCCC(=O)O[C@]1(C(=O)CO)[C@@H](C)C[C@H]2[C@@H]3CCC4=CC(=O)C=C[C@]4(C)[C@@]3(F)[C@@H](O)C[C@@]21C` has what Potency?
Response: 54.9 µM (active)

Query: Which value of Potency has been reported for `CCn1nc(C)c2c1C(=O)NCC(c1ccc(O)cc1)=N2` in the records?
Response: inactive

Query: So what does the record say about Potency for `CC(=O)Nc1ccccc1C` ?
Response: inactive

Query: Bench note: what Potency did CCCCC(CC)COC(=O)COc1ccc(Cl)cc1C (stereo unspecified) show?
Response: inactive

Alright, here's another compound for you.
Query: I am curious: what Potency value has been reported for `COC(=O)[C@@H]1CC2=CC(=O)CC[C@]2(C)[C@@]23O[C@@H]2C[C@@]2(C)[C@@H](CC[C@@]24CCC(=O)O4)[C@H]13` ?
Response: inactive

====

Biological target: Voltage-gated inwardly rectifying potassium channel KCNH2 (Homo sapiens)
Assay: Human Ether-a-go-go-Related Gene (hERG) channel small molecule antagonists: fluorescence cell-based qHTS assay (AID 1671200); further: nearly all actives have a fitted effect of over 50% in size
Details: hERG-U2OS cells, FluxOR thallium flux fluorescence; series mostly up to 76.8 µM
Records with an inconclusive call do not appear. Activity calls are given as the source filed them. Calls come from the whole dose curve; as a rule, active = well fitted inhibition curve with a large enough effect in the repeat runs; inconclusive = weak or mixed curves; inactive = flat fitted curve, though single readings scatter.
Give one outcome, nothing more. List: Y (active), N (inactive)

Query: Please let me know the test result on file for `CC(=O)Nc1ccc(N)cc1` .
Response: N

Query: Returns: the outcome recorded for `CO[C@H]1O[C@H](CO)[C@@H](O)[C@H](O)[C@H]1O` in this assay.
Response: N

Query: Given CC1C2CC(CC2C2CCCC(O)C2)C1(C)C (stereo not given) , state the outcome it received in this test.
Response: Y

Query: Hi, do you know how `Nc1ccc(S(=O)(=O)O)c(N)c1` came out in this test?
Response: N

Query: // param item: CC1=CC(O)CC(C)(C)C1 (stereo not given) ; yields the recorded call
Response: N

Continuing:
Query: Each compound tested received a call. Report the one for NCC1CCCC(CN)C1 (stereo not given) .
Response: N

Query: Could you check what this test reported for `CCOC(=O)CC(=O)C(=O)OCC` ?
Response: Y

Query: GET /call?item= `CCCCCCCCCCCC[N+](C)(C)CCCS(=O)(=O)[O-]` returns the recorded outcome of this test.
Response: N

Query: Record request — test call for CCCCC1C(=O)N(c2ccccc2)N(c2ccc(O)cc2)C1=O (stereo not given)
Response: N

Query: Could you check what this test reported for `CCCCCCCCSCCO` ?
Response: N
